Molecular target: IN-GCN2 interaction (6xHis-IN / GST-GCN2) (UniProt P04585+Q9P2K8)
Sequence (Q9P2K8 192-1024, other chains not shown): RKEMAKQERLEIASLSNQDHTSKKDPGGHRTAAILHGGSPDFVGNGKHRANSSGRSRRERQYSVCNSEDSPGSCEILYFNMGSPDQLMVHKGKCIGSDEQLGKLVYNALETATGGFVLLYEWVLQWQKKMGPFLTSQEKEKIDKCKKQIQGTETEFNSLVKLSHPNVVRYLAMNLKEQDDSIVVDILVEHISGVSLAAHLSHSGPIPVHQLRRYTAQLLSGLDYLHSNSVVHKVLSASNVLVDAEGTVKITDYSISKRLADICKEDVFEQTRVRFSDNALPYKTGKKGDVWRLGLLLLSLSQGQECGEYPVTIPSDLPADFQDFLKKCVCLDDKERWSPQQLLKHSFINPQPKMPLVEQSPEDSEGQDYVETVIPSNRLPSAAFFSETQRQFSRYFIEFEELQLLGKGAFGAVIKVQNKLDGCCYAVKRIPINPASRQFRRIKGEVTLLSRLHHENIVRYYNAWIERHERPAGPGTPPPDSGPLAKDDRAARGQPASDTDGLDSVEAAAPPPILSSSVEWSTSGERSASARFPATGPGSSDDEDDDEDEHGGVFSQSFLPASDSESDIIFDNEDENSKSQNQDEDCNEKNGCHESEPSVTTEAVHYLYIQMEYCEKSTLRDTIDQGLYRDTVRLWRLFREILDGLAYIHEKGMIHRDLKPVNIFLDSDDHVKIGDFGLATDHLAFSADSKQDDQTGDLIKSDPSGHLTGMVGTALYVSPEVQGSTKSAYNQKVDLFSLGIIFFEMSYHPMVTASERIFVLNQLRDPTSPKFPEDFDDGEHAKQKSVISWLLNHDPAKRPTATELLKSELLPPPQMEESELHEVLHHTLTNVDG
Experiment: biochemical
Format: binding, HIV-1 IN; human GCN2
Conditions: IC50, inhibition of IN-GCN2 interaction, SAR study, fresh dilutions from powder; at least three independent experiments
Experimental Readout: IC50 (µM)

Compound	Value Relation Sign	Meas Value
COc1cc2c(c(OC)c1OC)CC1c3c(cc4c(c3-2)OCO4)CCN1C (stereo not shown)	=	54
COc1cccc2c1C(=O)c1c(O)c3c(c(O)c1C2=O)CC(O)(C(=O)CO)CC3OC1CC(N(C)C)C(O)C(C)O1 (stereo not shown)	>	100
COc1cccc2c1C(=O)c1c(O)c3c(c(O)c1C2=O)CC(O)(C(C)=O)CC3OC1CC(N)C(OC2CC(O)C(O)C(C)O2)C(C)O1 (stereo not shown)	=	6.5
CCC1(O)CC(OC2CC(N)C(O)C(C)O2)c2c(O)c3c(c(O)c2C1C(=O)OC)C(=O)c1cccc(O)c1C3=O (stereo not shown)	=	0.917

Where these numbers come from: paper PMC12390684
